For each entry below, report its IC50 value.
System: R2
Test: Antiproliferative activity against chinese hamster R2 cells assessed as reduction of viable cells after 96 hrs
Condition Description: Cricetulus griseus, R2, 96 h

Would you kindly share the measured IC50 for `Nc1nc2[nH]c(Cc3ccc(C(=O)N[C@@H](CCC(=O)O)C(=O)O)s3)cc2c(=O)[nH]1` ? > 1000 nM

Would you mind doing `Nc1nc(N)c2nc(CNc3ccc(C(=O)N[C@@H](CCCNC(=O)c4ccccc4C(=O)O)C(=O)O)cc3)cnc2n1` as well? > 1000 nM

Would you mind doing `Nc1nc2[nH]c(CCCCc3ccc(C(=O)N[C@@H](CCC(=O)O)C(=O)O)s3)cc2c(=O)[nH]1` as well? > 1000 nM

Would you mind doing `Nc1nc2[nH]c(CCCc3ccc(C(=O)N[C@@H](CCC(=O)O)C(=O)O)s3)cc2c(=O)[nH]1` as well? 274 nM

Would you mind doing `Nc1nc2[nH]c(CCc3ccc(C(=O)N[C@@H](CCC(=O)O)C(=O)O)s3)cc2c(=O)[nH]1` as well? > 1000 nM
